System: Yap1 mRNA
Experiment: Dose-dependent inhibition of human Yap1 in A-431 cells (Example 8, 10,000 cells per well, RTS4814)
Format: cell-based
Conditions: 31.3 nM; A-431 cells, 10,000 cells per well, free uptake, approximately 48 hours, RTS4814
Strand notation (5' to 3'): a small letter for the sugar, then the base; units joined by * are phosphorothioate-linked, units joined directly phosphodiester-linked; [ ] holds rarer units or linkages, { } end groups; capitals alone tell only the bases. k = constrained ethyl (cEt); [5mC] = 5-methylcytosine; d = 2'-deoxy (DNA)
observation-type: Yap1 mRNA, % UTC
I'd appreciate it if you wrote the number followed by its unit.

# count of solved cases: 6
1074563 (DNA kT*kG*kA*dA*dT*dT*d[5mC]*d[5mC]*dA*dA*dT*d[5mC]*dG*kA*kG*kA; antisense) [compound 1074563]	80 % UTC
1074537 (k[5mC]*kA*kG*dT*dA*dA*dT*dA*dG*d[5mC]*dT*d[5mC]*dT*kT*kT*k[5mC]; antisense) [compound 1074537]	47 % UTC
1074484 (kT*k[5mC]*kA*d[5mC]*dT*dA*dA*dT*dA*dT*dG*dG*dT*k[5mC]*kA*kT; antisense) [compound 1074484]	43 % UTC
1076064 (kT*kA*kT*dG*dA*dA*d[5mC]*dA*dA*dT*dG*dT*dA*k[5mC]*kT*k[5mC]; antisense) [compound 1076064]	68 % UTC
1075055 (antisense k[5mC]*kT*kA*dT*dT*dA*dA*dG*dT*dG*dA*dG*d[5mC]*kT*kT*kT) [compound 1075055]	60 % UTC
1075842 (kG*kT*kA*dT*dT*dT*dA*dG*dG*dT*dA*d[5mC]*dT*k[5mC]*kA*kG; antisense) [compound 1075842]	27 % UTC

Task: Please indicate Yap1 mRNA, % UTC recorded for 1076070 (kA*kT*kT*dA*dG*dT*dA*dA*dT*dG*d[5mC]*dA*d[5mC]*kA*kG*kG; antisense) [compound 1076070]
Result: 55 % UTC

Task: For 1075115 (kG*kT*kA*dT*dA*dG*d[5mC]*d[5mC]*dT*dT*dA*dT*dT*k[5mC]*kT*kT; antisense) [compound 1075115] , write its Yap1 mRNA, % UTC.
Result: 57 % UTC

Task: Indicate the recorded Yap1 mRNA, % UTC value for this substance: 1076366 (antisense kA*kT*kT*dT*dA*d[5mC]*dA*dT*dG*dA*dG*dA*dG*kG*kA*kG) [compound 1076366]
Result: 63 % UTC

Task: // Input: 1075242 (k[5mC]*kA*kG*dG*dG*dA*dT*dA*dA*dT*dT*dA*d[5mC]*kT*kA*kA; antisense) [compound 1075242] . Output its Yap1 mRNA, % UTC only.
Result: 71 % UTC

Task: Supply reported Yap1 mRNA, % UTC belonging to this substance: 1076467 (kG*kT*kA*dT*dT*dT*dA*dG*dA*dG*d[5mC]*dT*dT*kA*kA*kG; antisense) [compound 1076467]
Result: 24 % UTC

Task: Give a short answer stating reported Yap1 mRNA, % UTC for 1076260 (k[5mC]*kT*kT*dA*dA*dT*dT*dT*dA*dA*d[5mC]*dT*d[5mC]*k[5mC]*kT*kG; antisense) [compound 1076260] .
Result: 61 % UTC

Task: Consider the substance 1074221 (antisense kG*kA*kA*dT*dG*dA*dG*d[5mC]*dT*d[5mC]*dG*dA*dA*k[5mC]*kA*kT) [compound 1074221] . State its measured Yap1 mRNA, % UTC.
Result: 75 % UTC

// data source = patent US11214803B2
